B1: PLK2 (parent)
chain: YAELGQCSVFPATDAPEQFISQVT

Variants of: B1
Assay: protein stability index of a GFP-peptide fusion (GPS, HEK-293T) (PSI 1-6); higher = more stable;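 also: lentivirally expressed fusions sorted by FACS into six bins by GFP to DsRed ratio, PSI derived from sequencing read proportions per bin multiplied by bin number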
Conditions: c terminus: a fixed tail appended
Can you tell me protein stability index for the items I'm about to list?

Prompt line: Output measured protein stability index for this item: "V9P"
Response line: 2.41

Prompt line: Respond only with protein stability index recorded for "Q22I"
Response line: 1.52

Prompt line: Name the recorded protein stability index of the variant listed here: "E17M"
Response line: 1.6

Prompt line: Hello, please tell me recorded protein stability index for this one: "Q18K"
Response line: 2.08

Prompt line: Specify measured protein stability index for "P11F" .
Response line: 3.39

Prompt line: Supply measured protein stability index of "F19N" in your reply.
Response line: 2.92

Prompt line: Return reported protein stability index. Input variant: "A12Y"
Response line: 1.95

Prompt line: Return protein stability index for the following variant: "Q22H"
Response line: 2.27

Prompt line: Quote protein stability index reported for "Y1Q" please.
Response line: 4.7

Prompt line: Quick one: give measured protein stability index for "S21R"
Response line: 1.76

Prompt line: Give recorded protein stability index. "A15P"
Response line: 2.47

Prompt line: // Input: "S8L" . Output its protein stability index only.
Response line: 1.62

Prompt line: Provide protein stability index value for the following variant: "Q6V"
Response line: 1.94

Prompt line: Read off the recorded protein stability index for "A2S"
Response line: 3.15

Prompt line: Identify measured protein stability index associated with "E17Y"
Response line: 2.64

Prompt line: Note down protein stability index recorded for "Q18N"
Response line: 2.73

Prompt line: Fill in protein stability index for record "Y1W"
Response line: 2.84

Prompt line: Specify measured protein stability index for "T24M" .
Response line: 1.73

Prompt line: Answer with reported protein stability index of "E17P"
Response line: 2.12

Prompt line: Give the value of protein stability index reported for the following: "A2D"
Response line: 4.09

Prompt line: Item "P16C" : provide protein stability index
Response line: 2.04

Prompt line: Please report protein stability index for the following variant: "Q6R"
Response line: 1.69

Prompt line: Tell me its protein stability index given "V23F" as the entry.
Response line: 1.89

Prompt line: Provide protein stability index value for the following variant: "S21K"
Response line: 2.35

Prompt line: Specify measured protein stability index for "C7I" .
Response line: 1.97

Prompt line: Respond only with protein stability index recorded for "F10N"
Response line: 3.43

Prompt line: Indicate its recorded protein stability index; the variant in question is "S8W"
Response line: 3.17

Prompt line: Answer with the recorded protein stability index for the variant listed here: "F19V"
Response line: 2.28

Prompt line: Using the record for "D14P" , state its measured protein stability index.
Response line: 1.88

Prompt line: Quick one: give measured protein stability index for "P16Q"
Response line: 2.44

Prompt line: Could you please provide reported protein stability index for "V23K" ? Thanks!
Response line: 2.38

Prompt line: State its protein stability index for this variant: "E3L"
Response line: 1.43

Prompt line: Give reported protein stability index value for "L4T"
Response line: 3.05

Prompt line: For "L4C" , write its protein stability index.
Response line: 2.43

Prompt line: Entry "F19M" needs its protein stability index filled in; supply it.
Response line: 2.43

Prompt line: Answer with reported protein stability index of "E17K"
Response line: 2.32

Prompt line: Could you please provide reported protein stability index for "V23R" ? Thanks!
Response line: 2.54

Prompt line: Give protein stability index for the following variant: "Q18T"
Response line: 2.13

Prompt line: Consider the variant "V9G" and give its recorded protein stability index.
Response line: 2.27

Prompt line: Provide protein stability index value for the following variant: "A2V"
Response line: 2.15

Prompt line: Identify measured protein stability index associated with "F19D"
Response line: 2.87

Prompt line: Identify the reported protein stability index for the following entry. "C7K"
Response line: 2.23

Prompt line: Determine from records and report protein stability index for "G5Y"
Response line: 2.22

Prompt line: Please report protein stability index for the following variant: "P16R"
Response line: 1.84

Prompt line: Hello, please tell me recorded protein stability index for this one: "S21L"
Response line: 2.59

Prompt line: Give a short answer stating reported protein stability index for "A12N" .
Response line: 2.33

Prompt line: Report protein stability index for "Q22R"
Response line: 2.08

Prompt line: Please report protein stability index for the following variant: "I20E"
Response line: 2.69

Prompt line: Given "S8V" , respond with its protein stability index.
Response line: 2

Prompt line: Consider the variant "A15Q" and give its recorded protein stability index.
Response line: 2.17

Prompt line: Report measured protein stability index; entry is "P16W"
Response line: 2.84

Prompt line: Note down protein stability index recorded for "Q18G"
Response line: 2.82

Prompt line: Identify protein stability index associated with the variant "P16M"
Response line: 1.91

Prompt line: Dear colleague, please send me the reported protein stability index for "F10S" when you can.
Response line: 3.61

Prompt line: State its protein stability index for this variant: "Q6G"
Response line: 2.04

Prompt line: Indicate the recorded protein stability index value for this variant: "A12T"
Response line: 2.22

Prompt line: Assign protein stability index to the following record: "T13C"
Response line: 1.97

Prompt line: Return protein stability index (reported value) for this variant: "L4S"
Response line: 2.86

Prompt line: Provide one value: measured protein stability index of "S8K"
Response line: 2.04

Prompt line: Using known records, supply protein stability index for "A15R"
Response line: 2.21

Prompt line: Provide only the value of recorded protein stability index for "Q6P"
Response line: 2.26

Prompt line: Identify measured protein stability index associated with "P16V"
Response line: 1.66

Prompt line: Return protein stability index (reported value) for this variant: "F10D"
Response line: 4.2

Prompt line: Give recorded protein stability index. "T13A"
Response line: 2.49

Prompt line: Read the entry "A12W" and write its reported protein stability index.
Response line: 2.14

Prompt line: Note down protein stability index recorded for "D14E"
Response line: 2.05

Prompt line: # return recorded protein stability index for entry "A2T"
Response line: 2.25

Prompt line: Complete the entry with protein stability index for "A15H"
Response line: 2.58

Prompt line: Complete the entry with protein stability index for "Q18E"
Response line: 2.87

Prompt line: Using known records, supply protein stability index for "E3F"
Response line: 1.94

Prompt line: Tell me its protein stability index given "E17I" as the entry.
Response line: 1.75

Prompt line: Entry "Q6H" needs its protein stability index filled in; supply it.
Response line: 2.02

Prompt line: Tell me its protein stability index given "A12S" as the entry.
Response line: 2.1

Prompt line: Assign protein stability index to the following record: "A15E"
Response line: 2.6

Prompt line: Please report the measured protein stability index for "G5I"
Response line: 1.72

Prompt line: Tell me measured protein stability index for "L4F" please.
Response line: 2.5

Prompt line: Report protein stability index for "A15F"
Response line: 1.98

Prompt line: Report protein stability index for "V23S"
Response line: 2.96

Prompt line: Please look at this variant and report its protein stability index: "P11N"
Response line: 2.2

Prompt line: For the variant "L4A" , report protein stability index.
Response line: 2.33

Prompt line: Name the recorded protein stability index of the item "L4M" in your answer.
Response line: 2.11

Prompt line: Using the record for "A12M" , state its measured protein stability index.
Response line: 1.72

Prompt line: Supply protein stability index value. Item: "P16H"
Response line: 1.58

Prompt line: Identify the reported protein stability index for the following entry. "E3I"
Response line: 1.63

Prompt line: Give me measured protein stability index, please, for this variant: "E17H"
Response line: 1.86

Prompt line: Find the measured protein stability index of "Q22K" and report it.
Response line: 1.77

Prompt line: Please give the documented protein stability index of "T13G"
Response line: 2.32

Prompt line: For "T24C" , write its protein stability index.
Response line: 1.31

Prompt line: Entry "S8D" needs its protein stability index filled in; supply it.
Response line: 3.06

Prompt line: Annotate the variant "Y1G" with its measured protein stability index.
Response line: 4.39

Prompt line: Please give the documented protein stability index of "S8A"
Response line: 1.87

Numbers sourced from the supplement of paper PMC10567573.
